- system_tested: T1, hIL27Ra-his (Origene, Catalog #TP307012) (human, UniProt Q6UWB1 33-516, limits assumed)
- T1 construct: Bought his-tagged cytokine receptor used as SPR analyte; also called human IL27 receptor subunit alpha; not shown: his tag
- T1 sequence: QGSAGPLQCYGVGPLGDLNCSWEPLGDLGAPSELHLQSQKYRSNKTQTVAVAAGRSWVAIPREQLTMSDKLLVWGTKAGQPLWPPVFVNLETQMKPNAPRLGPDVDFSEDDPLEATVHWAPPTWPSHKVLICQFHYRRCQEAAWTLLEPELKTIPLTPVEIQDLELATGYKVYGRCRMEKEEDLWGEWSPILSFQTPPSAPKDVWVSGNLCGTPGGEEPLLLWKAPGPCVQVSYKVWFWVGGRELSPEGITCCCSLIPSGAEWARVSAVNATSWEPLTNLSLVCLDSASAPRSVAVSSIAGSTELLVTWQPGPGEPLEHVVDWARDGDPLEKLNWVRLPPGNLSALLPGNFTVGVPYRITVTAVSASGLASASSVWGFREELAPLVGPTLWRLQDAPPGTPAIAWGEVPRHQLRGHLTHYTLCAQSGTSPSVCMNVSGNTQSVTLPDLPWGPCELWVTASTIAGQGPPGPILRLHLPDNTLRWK
- protocol_notes: SPR Biacore T200, hIL27Ra arm
reported_property: Kd (nM)

Solved entries:
INSERT INTO measurements (binder, reported_property, reported) VALUES
  ('hIL27Ra_VHH9 (VHH) VHH: QVQLQESGGGSVQSGGSLRLSCAASGFTYSTSNSWMAWFRQAPGKEREGVAAIYTVGGSIFYADSVRGRFTISQDATKNMFYLQMNTLKPEDTAMYYCAAASGRLRGKWFWPYEYNYWGQGTQVTVSS', 'Kd', 4.5),
  ('hIL27Ra_VHH21 (VHH) VHH: QVQLQESGGGLVQPGGSLRLSCAASGFTFSLSSMSWVRQAPGKGLEWVSAISSGGASTYYTDSVKGRFTISRDNAKNMLYLQLNSLKTEDTAMYYCAKGGSGYGDASRMTSPGSQGTQVTVSS', 'Kd', 6.1),
  ('hIL27Ra_VHH15 (VHH) VHH: QVQLQESGGGSVQAGGSLRLSCVASGYVSCDYFLPSWYRQAPGKEREFVSIIDGTGSTSYAASVKGRFTASQDKGKNIAYLQMNTLKPEDTAMYYCKASCVRGRAISEYWGQGTQVTVSS', 'Kd', 17);

(A) hIL27Ra_VHH1 (VHH) VHH: QVQLQESGGGLVQPGGSLRLSCAASGFTFSSYPMSWVRQAPGKGLEWISTISAGGDTTLYADSVKGRFTSSRDNAKNTLYLQLNSLKTEDAAIYYCAKRIDCNSGYCYRRNYWGQGTQVTVSS
(B) hIL27Ra_VHH19 (VHH) VHH: QVQLQESGGGSVQAGGSLRLSCRASGSTYSNYCLGWFRQITGKEREGVAVINWVGGMLYFADSVKGRFTVSQDQAKNTVYLQMNSLKPEDTAMYYCAAESVSSFSCGGWLTRPDRVPYWGQGTQVTVSS
Ask: Of the pair A and B , name the member with the lesser recorded Kd. // caller expects the label of the chosen entry
Reply: B
